The sequences listed here are annotated with their PBM E-score.
experimentalTarget: Mot3 (UniProt P54785)
Sequence: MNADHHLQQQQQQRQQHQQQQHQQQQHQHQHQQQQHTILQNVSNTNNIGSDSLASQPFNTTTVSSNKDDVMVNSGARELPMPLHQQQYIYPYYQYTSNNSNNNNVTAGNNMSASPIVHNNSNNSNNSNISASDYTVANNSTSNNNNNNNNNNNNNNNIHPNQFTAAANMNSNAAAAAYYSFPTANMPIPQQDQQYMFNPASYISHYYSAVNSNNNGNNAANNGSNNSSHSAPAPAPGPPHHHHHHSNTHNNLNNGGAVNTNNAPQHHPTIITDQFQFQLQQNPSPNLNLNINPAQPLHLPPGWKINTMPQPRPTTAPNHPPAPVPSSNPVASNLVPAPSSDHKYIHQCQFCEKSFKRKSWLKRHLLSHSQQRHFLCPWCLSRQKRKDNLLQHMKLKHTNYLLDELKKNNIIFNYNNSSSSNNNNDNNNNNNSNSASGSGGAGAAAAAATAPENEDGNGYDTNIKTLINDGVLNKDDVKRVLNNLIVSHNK
protocol: PBM E-score (8-mer binding enrichment) (E-score (-0.5 to 0.5)); higher = stronger / more preferred TF binding
conditions: protein concentration: 200 nM; construct: GST-full length
In all, about 33,000 sequences were measured (“E-score (-0.5 to 0.5)”: median about -0.035, highest 2% from about 0.34 on). The entries come from a sample that favours the highest values as a whole.
reportedEndpoint: PBM E-score

> print(dat)
   orderedresidues  reportedendpoint  recordedresult
1         AGCAGTCA       PBM E-score          0.0249
2         TGTTAAAA       PBM E-score           0.343
3         CGTTAAAA       PBM E-score           0.151
